Collected pEC50 values appear next to each entry.
- Test system: MKL-2
- assay comment: Cell Titer Glo dose-response study
- Type: cell-based, human
- run parameters: Homo sapiens; MKL-2 (MCV-positive); Cell Titer Glo; read-out: EC50 concentrations for MCC cell lines, MKL-2
pEC50: −log10 of the molar value.
measured attribute: pEC50

compound | measured attribute | value
COc1cccc2c1C(=O)c1c(O)c3c(c(O)c1C2=O)C[C@@](O)(C(=O)CO)C[C@@H]3O[C@H]1C[C@H](N)[C@H](O)[C@H](C)O1 | pEC50 | 7.66
COc1cc([C@@H]2c3cc4c(cc3[C@@H](O[C@@H]3O[C@@H]5CO[C@@H](c6cccs6)O[C@H]5[C@H](O)[C@H]3O)[C@H]3COC(=O)[C@H]23)OCO4)cc(OC)c1O [Teniposide] | pEC50 | 5.55
Clc1ccc(C(c2ccc(Cl)cc2)n2cc[n+](CC(OCc3ccc(Cl)cc3Cl)c3ccc(Cl)cc3Cl)c2)cc1 (stereo not drawn) [Calmidazolium chloride] | pEC50 | 5.77

---

- Tested on: UISO
- assay comment: Cell Titer Glo dose-response study
- Format: cell-based, human
- run parameters: Homo sapiens, read-out: EC50 concentrations for MCC cell lines, UISO
Structures can show the parent of a compound that is named as a salt.
measured attribute: log10 EC50 (log10 of the value in nM)

compound | log10 EC50
CCN(CC)CCCC(C)Nc1c2ccc(Cl)cc2nc2ccc(OC)cc12 (centres unmarked) [Quinacrine dihydrochloride] | 3.85
C[n+]1cc2c3c(ccc2c2ccc4cc5c(cc4c21)OCO5)OCO3 [Sanguinarine chloride] | 3.81
CC(C)C[C@H](NC(=O)[C@H](Cc1ccccc1)NC(=O)c1cnccn1)B(O)O | 0.48
COc1cccc2c1C(=O)c1c(O)c3c(c(O)c1C2=O)C[C@@](O)(C(C)=O)C[C@@H]3O[C@H]1C[C@H](N)[C@H](O)[C@H](C)O1 | 3.15
NC(=O)CI [Iodoacetamide] | 3.40

---

- Tested on: WaGa
- assay comment: Cell Titer Glo dose-response study
- Assay type: cell-based, human
- run parameters: Homo sapiens, read-out: EC50 concentrations for MCC cell lines, WaGa
Where a name gives a salt, the structure may show the parent alone.
API: label(entry) gives satisfied if the entry's EC50 is strictly smaller than 400 nM; on equality or larger values it gives not satisfied.

compound | target entity | class
COc1cccc2c1C(=O)c1c(O)c3c(c(O)c1C2=O)C[C@@](O)(C(C)=O)C[C@@H]3O[C@H]1C[C@H](N)[C@H](O)[C@H](C)O1 [Daunorubicin] | WaGa | satisfied
NC(=O)CI [Iodoacetamide] | WaGa | satisfied
CC(C)C[C@H](NC(=O)[C@H](Cc1ccccc1)NC(=O)c1cnccn1)B(O)O [Bortezomib] | WaGa | satisfied
C[n+]1cc2c3c(ccc2c2ccc4cc5c(cc4c21)OCO5)OCO3 [Sanguinarine chloride] | WaGa | not satisfied
CCN(CC)CCCC(C)Nc1c2ccc(Cl)cc2nc2ccc(OC)cc12 (centres unmarked) [Quinacrine dihydrochloride] | WaGa | not satisfied

---

Collected pEC50 values appear next to each entry.
- System: MKL-1
- assay comment: Cell Titer Glo dose-response study
- Assay type: cell-based, human
- run parameters: Homo sapiens; MKL-1 (MCV-positive); Cell Titer Glo; read-out: EC50 concentrations for MCC cell lines, MKL-1
pEC50: −log10 of the molar value. Where a name gives a salt, the structure may show the parent alone.
measured attribute: pEC50

compound | value
Cc1c2ccncc2c(C)c2c1[nH]c1ccccc12 | 5.49
Clc1ccc(C(c2ccc(Cl)cc2)n2cc[n+](CC(OCc3ccc(Cl)cc3Cl)c3ccc(Cl)cc3Cl)c2)cc1 (stereo not shown) [Calmidazolium chloride] | 5.66
COc1cc(NS(C)(=O)=O)ccc1Nc1c2ccccc2nc2ccccc12 [Amsacrine hydrochloride] | 6.96
CC[C@@]1(O)C(=O)OCc2c1cc1n(c2=O)Cc2cc3c(CN(C)C)c(O)ccc3nc2-1 | 7.55

---

- Test system: MKL-1
- assay comment: Cell Titer Glo dose-response study
- Type: cell-based, human
- run parameters: Homo sapiens; MKL-1 (MCV-positive); Cell Titer Glo; read-out: EC50 concentrations for MCC cell lines, MKL-1

compound | EC50
COc1cc([C@@H]2c3cc4c(cc3[C@@H](O[C@@H]3O[C@@H]5CO[C@@H](c6cccs6)O[C@H]5[C@H](O)[C@H]3O)[C@H]3COC(=O)[C@H]23)OCO4)cc(OC)c1O [Teniposide] | 10 nM
O=C1c2c(O)ccc(O)c2C(=O)c2c(NCCNCCO)ccc(NCCNCCO)c21 [Mitoxantrone] | 6 nM
CCN(CC)C(=S)SSC(=S)N(CC)CC [Tetraethylthiuram disulfide] | 490 nM
COc1ccc2c(c[n+](C)c3c4cc5c(cc4ccc23)OCO5)c1OC [Chelerythrine chloride] | 600 nM
CCCCC(=O)OCC(=O)[C@]1(O)Cc2c(O)c3c(c(O)c2[C@@H](O[C@H]2C[C@H](NC(=O)C(F)(F)F)[C@H](O)[C@H](C)O2)C1)C(=O)c1c(OC)cccc1C3=O [Valrubicin] | 230 nM
COc1cccc2c1C(=O)c1c(O)c3c(c(O)c1C2=O)C[C@@](O)(C(=O)CO)C[C@@H]3O[C@H]1C[C@H](N)[C@H](O)[C@H](C)O1 [Doxorubicin] | 210 nM
